Test system: CCRF-CEM
Assay: NCI tumour cell line growth inhibition, 48 h
The source made the active and inactive calls. No stated cut-off is given here; in the data, active = GI50 up to about 1.1 µM and inactive = higher.
Classes used: yes = active, no = inactive

CCOc1ccc(/C=C2\NC(=S)N(/C=C3\C(=O)Oc4ccccc4C3=O)C2=O)cc1    no
OCC1CC2CC1C1(C2)OCCO1 (configuration not stated)    no
O=C1Nc2cccc3ncn(c23)C2=C1CCCC2    no
NCCCN(CCCN)CCN(CCN(CCCN)CCCN)CCN(CCCN)CCCN    no
C/N=c1/ss/c(=N\C(SC)=[N+](C)C)n1C.[O-][Cl+3]([O-])([O-])[O-]    no
C/C=C1\C[C@@H]2C(OC)Nc3cc(O)c(OC)cc3C(=O)N2C1 (some centres not stated)    yes
COc1c2c(cc3c1C1(O)Cc4ccc5c(c4C[N+]1(C)CC3)OCO5)OCO2 (configuration not stated)    no
